- Test system: COR-L23
- runDescription: relative viability (nuclei count vs DMSO), 5 days (fraction); higher = more cells survive
- conditionDescription: first compound 1.265 µM
Kindly supply the reported relative viability values for the records listed here.
Numbers only.

Study these solved cases before continuing.
O=C(O)c1ccc(-c2c[nH]c3ncc(-c4ccccc4)cc23)cc1C1CCCC1 + CS(=O)(=O)CCNCc1ccc(-c2ccc3ncnc(Nc4ccc(OCc5cccc(F)c5)c(Cl)c4)c3c2)o1 [Lapatinib] (partner 2 µM) : 0.654
O=C(O)c1ccc(-c2c[nH]c3ncc(-c4ccccc4)cc23)cc1C1CCCC1 + Nc1ncn([C@H]2C[C@H](O)[C@@H](CO)O2)c(=O)n1 [Decitabine] (partner 2 µM) : 0.327
O=C(O)c1ccc(-c2c[nH]c3ncc(-c4ccccc4)cc23)cc1C1CCCC1 + COc1cc2c(Oc3ccc(NC(=O)C4(C(=O)Nc5ccc(F)cc5)CC4)cc3F)ccnc2cc1OCCCN1CCOCC1 [Foretinib] (partner 0.25 µM) : 0.636
O=C(O)c1ccc(-c2c[nH]c3ncc(-c4ccccc4)cc23)cc1C1CCCC1 + CC(=O)c1c(C)c2cnc(Nc3ccc(N4CCNCC4)cn3)nc2n(C2CCCC2)c1=O [Palbociclib] (partner 0.5 µM) : 0.205
O=C(O)c1ccc(-c2c[nH]c3ncc(-c4ccccc4)cc23)cc1C1CCCC1 + C[C@]1(O)C[C@@H](c2nc(-c3ccc4ccc(-c5ccccc5)nc4c3)c3c(N)nccn32)C1 [Linsitinib] (partner 1 µM) : 0.444

Items follow; give relative viability for each.
1. O=C(O)c1ccc(-c2c[nH]c3ncc(-c4ccccc4)cc23)cc1C1CCCC1 + CCNC(=O)c1noc(-c2cc(C(C)C)c(O)cc2O)c1-c1ccc(CN2CCOCC2)cc1 [Luminespib] (partner 0.01 µM)
2. O=C(O)c1ccc(-c2c[nH]c3ncc(-c4ccccc4)cc23)cc1C1CCCC1 + O=C(CCCCCCC(=O)Nc1ccccc1)NO [Vorinostat] (partner 1 µM)

[0.407, 0.233]
